This collection of values is drawn from patent US5105020A.

- Tested on: cyclooxygenase
- assay_procedure: Test b): heparinised human blood, A23187 challenge, TxB2 radioimmunoassay
- Type: cell-based

compound | IC50
CO[C@@H]1CCC[C@]1(OC)c1cccc(OCc2ccc3ccccc3c2)c1 (relative stereo) | > 40 µM
